Biological target: EP4 (Homo sapiens (Human), UniProt P35408)
Sequence (P35408 whole entry): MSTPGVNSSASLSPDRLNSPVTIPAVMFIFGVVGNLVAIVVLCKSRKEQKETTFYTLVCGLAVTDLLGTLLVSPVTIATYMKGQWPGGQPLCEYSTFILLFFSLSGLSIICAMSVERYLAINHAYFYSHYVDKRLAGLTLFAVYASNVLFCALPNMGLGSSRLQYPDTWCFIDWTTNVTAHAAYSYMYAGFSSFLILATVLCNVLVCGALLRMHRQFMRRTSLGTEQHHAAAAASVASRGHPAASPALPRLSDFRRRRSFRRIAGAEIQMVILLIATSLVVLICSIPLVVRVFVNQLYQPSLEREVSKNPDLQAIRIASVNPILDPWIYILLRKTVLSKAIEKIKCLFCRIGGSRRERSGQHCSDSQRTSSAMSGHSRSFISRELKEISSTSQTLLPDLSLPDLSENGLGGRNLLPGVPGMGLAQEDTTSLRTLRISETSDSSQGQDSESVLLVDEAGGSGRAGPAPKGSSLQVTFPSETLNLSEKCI
Assay: hEP4 cAMP assay (BT549 breast cancer cells, HTRF cAMP)
Type: cell-based
Details: antagonistic activity; mean values where measured multiple times
Assignment: determine reported IC50 for the given compounds.
Response body: numeric value in nM, unit text excluded.

Incoming: Any idea what IC50 came out for Cc1cc2c(Cl)ccc(Cl)c2n1CCNc1cc(-c2ccc(C(=O)O)c(SC3CCC3)c2)ncn1 [compound 453] on EP4 (Homo sapiens (Human), UniProt P35408)?
Outgoing: 904

Incoming: What would you report for CCCCOc1cc(-c2cc(NCCn3c(C)cc4c(OC)cccc43)ncn2)ccc1C(=O)O [compound 484] ?
Outgoing: 117

Incoming: What would you report for Cc1cnoc1-c1ccc(-c2cc(NCCn3c(C)cc4c(C)cc(F)cc43)ncn2)cc1 [compound 734] ?
Outgoing: 465
